Settings: pH 7.4
readoutType: logD

[1] Cc1ncc(-c2ccnc(Nc3ccc(N4CCOCC4)cc3)n2)n1C(C)C
[2] CS(=O)(=O)c1ccc2c3c([nH]c2c1)CCN(C(=O)[C@@H]1CCCC[C@H]1C(=O)NC1(C#N)CC1)C3
# input Hi team, can someone confirm which has the larger logD: 1 or 2 ? Thanks. Response format: the label of the selected entry.
# output 1

[A] Cc1cccc2c3c([nH]c12)CCN(C(=O)[C@@H]1CCCC[C@H]1C(=O)NC1(C#N)CC1)C3
[B] N#CC1(NC(=O)[C@@H]2CCCC[C@H]2C(=O)N2CCN(c3nc4ncccc4s3)CC2)CC1
[C] CS(=O)(=O)Cc1cc(N2CCOCC2)nc(-c2ccc3[nH]ccc3c2)n1
# input Sort (3 compounds) by logD: min first. Ranked list of labels, please, in the requested order.
# output B, C, A

====

Settings: pH 7.4
readoutType: logD

// solved cases for logD follow
N#CC1(NC(=O)[C@@H]2CCCC[C@H]2C(=O)N2CCc3[nH]c4c(F)cccc4c3C2)CC1 :: 3.03
C[C@@H]1CN(C(=O)OC(C)(C)C)CCN1c1ncc(OCc2ccc(S(C)(=O)=O)cc2F)cn1 :: 3.7
C[C@H](C#N)NC(=O)[C@@H]1CCCC[C@H]1C(=O)N1CCc2[nH]c3ccc(F)cc3c2C1 :: 3.1
COc1cc(OC)c(S(=O)(=O)N2c3ccccc3CCC2C)cc1NC(=O)Cc1ccnc(F)c1 (configuration not stated) :: 2.49
O=c1cc(-c2ccccc2)nc2cc[nH]n12 :: 1.3

[A] CS(=O)(=O)Cc1cc(N2CCOCC2)nc(-c2ccccc2)n1
[B] Cc1ncc(-c2ccnc(Nc3ccc(S(=O)(=O)CCCN(C)C)cc3)n2)n1C(C)C
# input Param metric = logD; output whichever of A , B has the minimum value. The response must carry the label of the picked entry.
# output B
(B: 1.32, A: 1.94)

[1] CC(C)c1ccc2[nH]c3c(c2c1)CN(C(=O)[C@@H]1CCCC[C@H]1C(=O)NC1(C#N)CC1)CC3
[2] N#CC1(NC(=O)[C@@H]2CCCC[C@H]2C(=O)N2CCc3[nH]c4ncccc4c3C2)CC1
# input Form field 'greater logD' accepts 1 or 2 ; which applies? Indicate which entry you chose by stating its label.
# output 1

[P] CC(C)(C)c1cc2nc3c(c(=O)n2[nH]1)CN(Cc1ccccc1)C3=O
[Q] COc1cc(N2CC3COCC(C2)N3)ccc1Nc1ncc(Cl)c(-c2cnc3ccccn23)n1
[R] CCCCN1Cc2c(nc3cc(-c4ccco4)[nH]n3c2=O)C1=O
# input Hey, quick one: sort these by logD, largest value first please. Give your ranking as a list of the labels in the requested order.
# output Q, P, R
(Q: 3, P: 1.9, R: 0.8)

====

Conditions: pH 7.4
readoutType: logD

Known logD results, listed for orientation:
C[C@H]1O[C@@H](n2cnc3c(N)nc(OC4CCCC4)nc32)[C@H](O)[C@H]1Cl :: 3.18
CC(C)c1nc(N2CCN(c3ncc(OCc4ccncc4C#N)cn3)[C@H](C)C2)no1 :: 3.3
O=S(=O)(Cc1cc(N2CCOCC2)nc(-c2ccccn2)n1)c1ccccc1 :: 1.34

[A] C[C@@H]1CN(c2noc(C3CC3)n2)CCN1c1ncc(OCc2ccncc2C#N)cn1
[B] Cc1nnc(C)c2cc(N3CCN(C(=O)[C@@H]4CCCC[C@H]4C(=O)NC4(C#N)CC4)[C@H](C)C3)ccc12
# input # compare logD for A vs B ; return the one with the smaller value State the label of the item chosen.
# output B

[P] C[C@@H]1CN(c2ccccc2)CCN1C(=O)[C@@H]1CCCC[C@H]1C(=O)NC1(C#N)CC1
[Q] Cc1nc2nc(-c3cccnc3)[nH]n2c(=O)c1Cc1ccccc1
# input Of P and Q , which one carries the higher reported logD? In your reply, give the label of the chosen option.
# output P
(P: 2.35, Q: 1.52)

[1] COc1cc(OC)c(S(=O)(=O)N2c3ccccc3CCC2C)cc1NC(=O)CSc1ccncc1 (centres undefined)
[2] CCn1c(=O)c2c(O)cc(=O)oc2c2ccccc21
# input Given 1 and given 2 , which shows the smaller recorded logD? Your choice should be expressed through its label.
# output 2

====

Details: pH 7.4
readoutType: logD

CCNC(=O)c1cc2c(-n3ccc(C(F)(F)F)n3)c(-c3cc(-c4n[nH]c(=O)o4)cnc3OC)cnc2[nH]1 :: 2.91
N#CC1(NC(=O)[C@@H]2CCCC[C@H]2C(=O)N2CCc3[nH]c4ccc(F)cc4c3C2)CC1 :: 3
CC(C)(C)OC(=O)N1C[C@@H]2CC[C@H]1CN2c1ncc(OCc2ccc(S(C)(=O)=O)cc2)cn1 :: 3.4

[A] COc1cc2ncnc(Nc3cccc(Cl)c3F)c2cc1OC1CCN(CC(N)=O)CC1
[B] COc1ccc(N(C(=O)c2occc2CO)C(C(=O)NC[C@@H](C)O)c2ccccc2F)c(OC)c1 (stereo partly drawn)
[C] CS(=O)(=O)c1ccc(N2CCN(C(=O)[C@@H]3CCCC[C@H]3C(=O)NCC#N)CC2)cc1
# input Exam item: list the entries in increasing order of logD. Please respond with the labels ordered as the question requires.
# output C, B, A

[A] CC1(C)COCc2sc(N3CCN(C(=O)[C@@H]4CCCC[C@H]4C(=O)NC4(C#N)CC4)CC3)nc21
[B] N#CC1(NC(=O)[C@@H]2CCCC[C@H]2C(=O)N2CCc3[nH]c4c(OC(F)(F)F)cccc4c3C2)CC1
# input I would appreciate it if you could say which entry, A or B , has the lower logD value. To answer, give the label that identifies your chosen option.
# output A

[a] CCCSc1c(C(=O)NC2CCCCC2)cnn1C
[b] C[C@H]1O[C@@H](n2cnc3c(N)nc(OCC4CC45CC5)nc32)[C@H](O)[C@@H]1O (stereo partly drawn)
# input Name the one with the greater logD value, either a or b as given. # reply format: chosen label
# output a

====

Conditions: pH 7.4
readoutType: logD

// below: answered molecules
CCNC(=O)c1cc2c(-n3ccc(C(F)(F)F)n3)c(-c3cncc(C(=O)NC)c3)cnc2[nH]1 :: 2.21
Cc1sc(N2CCN(C(=O)[C@@H]3CCCC[C@H]3C(=O)NC3(C#N)CC3)CC2)nc1C(F)(F)F :: 2.87
Cc1nc2nc[nH]n2c(=O)c1CCOC(=O)c1c(F)cccc1F :: 0.16
CC(C)(C)OC(=O)N1CCN(c2ncc(OCc3ccncc3)cn2)CC1 :: 3.4
CC(C)(C)OC(=O)N1CCN(c2ncc(OCc3ccc(S(C)(=O)=O)cc3)nn2)CC1 :: 2.93

[A] Fc1ccc(CN2CCN(C3=Nn4c(nnc4C(F)(F)F)CC3)CC2)cc1
[B] COc1cc(OC)c(S(=O)(=O)NCc2ccccc2N2CCC(CO)CC2)cc1NC(C)=O
# input Param pair: A , B . Output: the one whose logD is numerically greater. State your choice using its label.
# output A

====

Details: pH 7.4
readoutType: logD

Solved cases (3 shown):
COc1cc(OC)c(S(=O)(=O)N2c3ccccc3Oc3ccccc32)cc1NC(=O)Cc1ccnc(F)c1 :: 3.37
C[C@@H]1CN(c2ncc(F)cn2)CCN1c1ncc(OCc2ccncc2C#N)cn1 :: 3.4
C[C@@H](c1ncncc1F)[C@](O)(Cn1cncn1)c1ccc(F)cc1F :: 1.7

[A] COc1ccc(N2CCN(C(=O)[C@@H]3CCCC[C@H]3C(=O)NC3(C#N)CC3)CC2)cc1
[B] N#CC1(NC(=O)[C@@H]2CCCC[C@H]2C(=O)N2CCN(c3nc(-c4ccccc4)cs3)CC2)CC1
# input I would appreciate it if you could say which entry, A or B , has the lower logD value. Response format: the label of the selected entry.
# output A

====

Settings: pH 7.4
readoutType: logD

Solved entries (count: 3):
C[C@@H]1CN(C(=O)OC(C)(C)C)CCN1c1ncc(OCC2CCN(S(C)(=O)=O)CC2)cn1 :: 3.5
N#Cc1cnc(N2CCN(C(=O)[C@@H]3CCCC[C@H]3C(=O)NC3(C#N)CC3)CC2)s1 :: 1.2
CC(C)Oc1cc(OCCN2CCOCC2)cc2ncnc(Nc3c(Cl)ccc4c3OCO4)c12 :: 3.68

[P] CC(=O)N1CCN(CCOc2ccc(C3(O)CCN(c4ccc5nnc(C(F)(F)F)n5n4)CC3)cc2)CC1
[Q] N#CC1(NC(=O)[C@@H]2CCCC[C@H]2C(=O)N2CCN(c3nccs3)CC2)CC1
# input Which entry has a larger number for logD, P or Q ? Selection: enter the item's label.
# output P
(P: 2.2, Q: 1.3)

====

Details: pH 7.4
readoutType: logD

Cc1cc(C(C)Nc2ccccc2)c2nc(N3CCOCC3)cc(=O)n2c1 (stereo not drawn) :: 3.6

[a] N#CC1(NC(=O)[C@@H]2CCCC[C@H]2C(=O)N2CCc3[nH]c4ccc(Cl)cc4c3C2)CC1
[b] COc1ccc(N(C(=O)c2ccccc2)C(C(=O)NC[C@@H](C)O)c2ccccc2F)c(OC)c1 (stereo partly drawn)
# input Please tell me which of the two, a or b , has the higher reported logD value. Output the label that corresponds to your choice.
# output a
(a: 3.65, b: 2.55)
